Here, each record is paired with measured K data.
test: Stability of compound in 0.5 M NaOH assessed as solvolysis constant (K) incubated for 72 hrs by LC-MS analysis; assay type: physicochemical; parameters: unit not given beside the values
Reply: number alone, nothing else.

OC[C@H]1O[C@@H](OCCOCCOCC[N+]2(C[B-](F)(F)F)CCCCC2)[C@H](O)[C@@H](O)[C@@H]1O: 0.14

compound CCCC[N+](CCCC)(CCOCCOCCO[C@@H]1O[C@H](CO)[C@@H](O)[C@H](O)[C@H]1O)C[B-](F)(F)F , K observed: 0.082

compound OC[C@H]1O[C@@H](OCCOCCOCC[N+]2(C[B-](F)(F)F)CCOCC2)[C@H](O)[C@@H](O)[C@@H]1O , K observed: 0.061

compound C[N+](C)(Cc1cn([C@@H]2[C@@H](O)[C@H](O)[C@@H](CO)O[C@@H]2O)nn1)C[B-](F)(F)F , K observed: 0.016

compound C[N+](C)(Cc1cn(CCOCCOCCO[C@@H]2O[C@H](CO)[C@@H](O)[C@H](O)[C@H]2O)nn1)C[B-](F)(F)F , K observed: 0.019

* * *

assay: Stability of compound in 0.5 M NaOH assessed as half life incubated for 72 hrs by LC-MS analysis; assay type: physicochemical
measured.metric: half-life (h)
Expressed in h, but write only the number.

C[N+](C)(Cc1cn(CCOCCOCCO[C@@H]2O[C@H](CO)[C@@H](O)[C@H](O)[C@H]2O)nn1)C[B-](F)(F)F: 36
OC[C@H]1O[C@@H](OCCOCCOCC[N+]2(C[B-](F)(F)F)CCCCC2)[C@H](O)[C@@H](O)[C@@H]1O: 4.95
OC[C@H]1O[C@@H](OCCOCCOCC[N+]2(C[B-](F)(F)F)CCOCC2)[C@H](O)[C@@H](O)[C@@H]1O: 11.3

Now let's try a different one.
molecule CCCC[N+](CCCC)(CCOCCOCCO[C@@H]1O[C@H](CO)[C@@H](O)[C@H](O)[C@H]1O)C[B-](F)(F)F , half-life observed: 8.47

* * *

assay: Stability of compound in 50 mM Tris-HCL buffer at pH 7.4 assessed as half life incubated for 72 hrs by LC-MS analysis; assay type: physicochemical
measured.metric: half-life (h)
Expressed in h, but write only the number.

Study these solved cases before continuing.
OC[C@H]1O[C@@H](OCCOCCOCC[N+]2(C[B-](F)(F)F)CCCCC2)[C@H](O)[C@@H](O)[C@@H]1O: 4.76
C[N+](C)(Cc1cn([C@@H]2[C@@H](O)[C@H](O)[C@@H](CO)O[C@@H]2O)nn1)C[B-](F)(F)F: 25
OC[C@H]1O[C@@H](OCCOCCOCC[N+]2(C[B-](F)(F)F)CCOCC2)[C@H](O)[C@@H](O)[C@@H]1O: 10.1

Now let's try a different one.
molecule CCCC[N+](CCCC)(CCOCCOCCO[C@@H]1O[C@H](CO)[C@@H](O)[C@H](O)[C@H]1O)C[B-](F)(F)F , half-life observed: 8.07

* * *

Here, each record is paired with measured K data.
test: Stability of compound in 0.9 % saline solution assessed as solvolysis constant (K) incubated for 72 hrs by LC-MS analysis; type: physicochemical; conditions: buffer
Reply: number alone, nothing else.

Study these solved cases before continuing.
OC[C@H]1O[C@@H](OCCOCCOCC[N+]2(C[B-](F)(F)F)CCCCC2)[C@H](O)[C@@H](O)[C@@H]1O: 0.383
OC[C@H]1O[C@@H](OCCOCCOCC[N+]2(C[B-](F)(F)F)CCOCC2)[C@H](O)[C@@H](O)[C@@H]1O: 0.136

compound C[N+](C)(Cc1cn(CCOCCOCCO[C@@H]2O[C@H](CO)[C@@H](O)[C@H](O)[C@H]2O)nn1)C[B-](F)(F)F , K observed: 0.018

compound CCCC[N+](CCCC)(CCOCCOCCO[C@@H]1O[C@H](CO)[C@@H](O)[C@H](O)[C@H]1O)C[B-](F)(F)F , K observed: 0.102

compound C[N+](C)(Cc1cn([C@@H]2[C@@H](O)[C@H](O)[C@@H](CO)O[C@@H]2O)nn1)C[B-](F)(F)F , K observed: 0.038

* * *

experiment: Stability of compound in 0.05 M HCL assessed as half life incubated for 72 hrs by LC-MS analysis; assay type: physicochemical
Criterion: half-life meeting or surpassing 20 min. Met: fulfilled. Not met: not fulfilled.

Use these answered entries as a reference point.
OC[C@H]1O[C@@H](OCCOCCOCC[N+]2(C[B-](F)(F)F)CCOCC2)[C@H](O)[C@@H](O)[C@@H]1O: not fulfilled
C[N+](C)(Cc1cn([C@@H]2[C@@H](O)[C@H](O)[C@@H](CO)O[C@@H]2O)nn1)C[B-](F)(F)F: fulfilled
C[N+](C)(Cc1cn(CCOCCOCCO[C@@H]2O[C@H](CO)[C@@H](O)[C@H](O)[C@H]2O)nn1)C[B-](F)(F)F: fulfilled
CCCC[N+](CCCC)(CCOCCOCCO[C@@H]1O[C@H](CO)[C@@H](O)[C@H](O)[C@H]1O)C[B-](F)(F)F: not fulfilled

Now look at this entry.
Check the entry OC[C@H]1O[C@@H](OCCOCCOCC[N+]2(C[B-](F)(F)F)CCCCC2)[C@H](O)[C@@H](O)[C@@H]1O : does half-life equal or exceed 20 min?
not fulfilled

* * *

assay: Stability of compound in 20 mM CH3COONH4 buffer at pH 5.8 assessed as solvolysis constant (K) incubated for 72 hrs by LC-MS analysis; format: physicochemical; parameters: unit not given beside the values; settings: pH 5.8, 72 h
Here, each record is paired with measured K data.
Reply: number alone, nothing else.

compound C[N+](C)(Cc1cn([C@@H]2[C@@H](O)[C@H](O)[C@@H](CO)O[C@@H]2O)nn1)C[B-](F)(F)F , K observed: 8.731

compound C[N+](C)(Cc1cn(CCOCCOCCO[C@@H]2O[C@H](CO)[C@@H](O)[C@H](O)[C@H]2O)nn1)C[B-](F)(F)F , K observed: 0.003

compound OC[C@H]1O[C@@H](OCCOCCOCC[N+]2(C[B-](F)(F)F)CCCCC2)[C@H](O)[C@@H](O)[C@@H]1O , K observed: 0.078

compound CCCC[N+](CCCC)(CCOCCOCCO[C@@H]1O[C@H](CO)[C@@H](O)[C@H](O)[C@H]1O)C[B-](F)(F)F , K observed: 0.03

compound OC[C@H]1O[C@@H](OCCOCCOCC[N+]2(C[B-](F)(F)F)CCOCC2)[C@H](O)[C@@H](O)[C@@H]1O , K observed: 0.021

* * *

assay: Stability of compound in 0.9 % saline solution assessed as half life incubated for 72 hrs by LC-MS analysis; assay type: physicochemical
Here, each record is paired with measured half-life data.
Expressed in h, but write only the number.

Study these solved cases before continuing.
OC[C@H]1O[C@@H](OCCOCCOCC[N+]2(C[B-](F)(F)F)CCOCC2)[C@H](O)[C@@H](O)[C@@H]1O: 5.11
C[N+](C)(Cc1cn([C@@H]2[C@@H](O)[C@H](O)[C@@H](CO)O[C@@H]2O)nn1)C[B-](F)(F)F: 18.3
OC[C@H]1O[C@@H](OCCOCCOCC[N+]2(C[B-](F)(F)F)CCCCC2)[C@H](O)[C@@H](O)[C@@H]1O: 1.81

compound C[N+](C)(Cc1cn(CCOCCOCCO[C@@H]2O[C@H](CO)[C@@H](O)[C@H](O)[C@H]2O)nn1)C[B-](F)(F)F , half-life observed: 38.4

compound CCCC[N+](CCCC)(CCOCCOCCO[C@@H]1O[C@H](CO)[C@@H](O)[C@H](O)[C@H]1O)C[B-](F)(F)F , half-life observed: 6.82

* * *

experiment: Stability of compound in 0.05 M HCL assessed as solvolysis constant (K) incubated for 72 hrs by LC-MS analysis; format: physicochemical; set-up: unit not given beside the values; details: buffer
Here, each record is paired with measured K data.
Reply: number alone, nothing else.

Study these solved cases before continuing.
OC[C@H]1O[C@@H](OCCOCCOCC[N+]2(C[B-](F)(F)F)CCCCC2)[C@H](O)[C@@H](O)[C@@H]1O: 6.439
CCCC[N+](CCCC)(CCOCCOCCO[C@@H]1O[C@H](CO)[C@@H](O)[C@H](O)[C@H]1O)C[B-](F)(F)F: 2.617
C[N+](C)(Cc1cn([C@@H]2[C@@H](O)[C@H](O)[C@@H](CO)O[C@@H]2O)nn1)C[B-](F)(F)F: 0.766
C[N+](C)(Cc1cn(CCOCCOCCO[C@@H]2O[C@H](CO)[C@@H](O)[C@H](O)[C@H]2O)nn1)C[B-](F)(F)F: 0.489

Now let's try a different one.
molecule OC[C@H]1O[C@@H](OCCOCCOCC[N+]2(C[B-](F)(F)F)CCOCC2)[C@H](O)[C@@H](O)[C@@H]1O , K observed: 2.302
